System: Pseudomonas aeruginosa
Assay: Antibacterial activity against Pseudomonas aeruginosa by broth dilution assay
Assay type: functional
Where a SMILES comes first, the peptide text is derived from it. [ ]: non-standard residue; d: D form. The star is where a group is joined. Tridecanoyl(3R-OH,11-Me) = CCC(C)CCCCCCC[C@@H](O)CC(=O)*; X2 = CCC(C)CC(C)CCCCC[C@@H](O)CC(=O)*
readoutName: MIC (µg/mL)
Your answer is read as µg/mL, so omit the unit and give the number.

In: Fill in the recorded MIC for this compound, with Pseudomonas aeruginosa as test system: C[C@@H]1CCCCC/C=C/[C@H](O)C[C@@H](O)C/C=C\C=C\[C@@H](O[C@@H]2O[C@H](CO)[C@@H](O)[C@H](O)[C@H]2O)C/C=C/C=C\C(=O)O1
Out: 0.03

In: Here is the next compound: CCC(C)CCCCCCC[C@@H](O)CC(=O)N[C@@H](CCC(=O)O)C(=O)N[C@@H](CC(C)C)C(=O)O (stereo partly specified)
Out: 0.03

In: Moving on to CCC(C)CC(C)CCCCC[C@@H](O)CC(=O)N[C@@H](CCC(=O)O)C(=O)N[C@@H](CC(C)C)C(=O)N[C@@H](CC(C)C)C(=O)N[C@@H](C(=O)N[C@@H](CC(=O)O)C(=O)N[C@@H](CC(C)C)C(=O)N[C@@H](CC(C)C)C(=O)O)C(C)C (stereo partly specified) (X2-ELL[dV]DLL-OH)
Out: 16

Let us move to another entry and its MIC.
In: Query MIC on Pseudomonas aeruginosa for CCC(C)CCCCCCC[C@@H](O)CC(=O)N[C@@H](CCC(=O)OC)C(=O)N[C@@H](CC(C)C)C(=O)N[C@@H](CC(C)C)C(=O)N[C@@H](CC(C)C)C(=O)O (stereo partly drawn) ({Tridecanoyl(3R-OH,11-Me)}-E(OMe)LLL-OH)
Out: 0.03

====

This listing pairs compounds with measured MIC.
System: Bacillus subtilis
Assay: Antibacterial activity against Bacillus subtilis by broth dilution assay
Format: functional
Where a SMILES comes first, the peptide text is derived from it. [ ]: non-standard residue; d: D form. The star is where a group is joined. Tridecanoyl(3R-OH,11-Me) = CCC(C)CCCCCCC[C@@H](O)CC(=O)*
# number only, unit µg/mL dropped from output

In: What does the record list as MIC for C[C@@H]1CCC/C=C/C=C/[C@H](O)C[C@@H](O)C[C@@H]2O[C@@H]2/C=C/[C@@H](O)C/C=C/C=C\C(=O)O1 [GAGEOMACROLACTIN 1] ?
Out: 0.01

Continuing:
In: Please give the measured MIC for this compound: CCC(C)CCCCCCC[C@@H](O)CC(=O)N[C@@H](CCC(=O)O)C(=O)N[C@@H](CC(C)C)C(=O)N[C@@H](CC(C)C)C(=O)N[C@@H](C(=O)N[C@@H](CC(=O)O)C(=O)N[C@@H](CC(C)C)C(=O)N[C@@H](CC(C)C)C(=O)O)C(C)C (stereo partly drawn) ({Tridecanoyl(3R-OH,11-Me)}-ELL[dV]DLL-OH)
Out: 16

====

System: Bacillus subtilis
Assay: Antibacterial activity against Bacillus subtilis by serial dilution assay
Type: functional
readoutName: MIC

Worked cases, MIC given:
In: Please report the recorded MIC for O=C1NC(=O)C(c2ccc(O)c([N+](=O)[O-])c2)=C1c1ccccc1 .
Out: 25 to 100 µg/mL

In: Param item: O=C1NC(=O)C(c2ccc(O)c([N+](=O)[O-])c2)=C1c1ccc(O)cc1
Out: 25 to 100 µg/mL

In: Continue with O=C1NC(=O)C(c2ccc(O)cc2)=C1c1ccccc1
Out: 25 to 100 µg/mL

Next:
In: Query: MIC; subject: O=C1NC(=O)C(c2ccc(O)c([N+](=O)[O-])c2)=C1c1ccc(O)c([N+](=O)[O-])c1
Out: 25 to 100 µg/mL

In: Note, next up: O=C1N/C(=N\O)C(c2ccc(O)c([N+](=O)[O-])c2)=C1c1ccc(O)c([N+](=O)[O-])c1
Out: 3 to 25 µg/mL

In: What about this compound? O=C1N/C(=N\O)C(c2ccc(O)c([N+](=O)[O-])c2)=C1c1ccccc1
Out: 3 to 25 µg/mL

In: Subsequent entry: O=C1NC(=O)C(c2c[nH]c3ccccc23)=C1c1ccc(O)c([N+](=O)[O-])c1
Out: 3 to 25 µg/mL

In: Next up: O=C1N/C(=N\O)C(c2ccccc2)=C1c1ccc(O)c([N+](=O)[O-])c1
Out: 3 to 25 µg/mL
